I'd appreciate it if you could supply composite z-score values for the items below.
# Assay name: binders of probe aHhip on microarray, primary screen, stem cell growth factor project, biochemical, small-molecule microarray, fluorescence 635/667 (AID 1087);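 note: score merges spot fluorescence at 667nm with spot signal to noise ratio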
# Setup conditions: higher = more signal
Give bare numbers.

Compound	composite z-score
CN1C(=O)[C@@]2(CCS(=O)(=O)c3ccccc3)N=C(c3ccc(OCCCO)cc3)O[C@H]2c2ccccc21	-0.04
COCCCNC(=O)[C@]1(Cc2ccccc2CN=[N+]=[N-])N=C(c2ccc(OCCCO)cc2)O[C@@H]1c1ccccc1	-0.0645
CN(C)CCCCNC(=O)[C@H]1C[C@H]2C(=O)N3CCC[C@H]3C(=O)N2[C@H]1c1ccc(O)cc1	-0.389
C=C(CCCC)C(=O)CC[C@@H](OC(=O)c1cccnc1)c1ccccc1OCCO	-0.0994

Hey, quick one: what's composite z-score for each of these?
1. [N-]=[N+]=Nc1ccccc1C[C@@]1(C(=O)O)N=C(c2ccc(OCCCO)cc2)O[C@@H]1c1ccccc1
2. COCCOC(=O)N1C(=O)[C@@]2(c3cc(C#Cc4ccc(OC)cc4)ccc31)[C@H](C(=O)NC[C@H](O)c1ccccc1)[C@H]1C(=O)O[C@H](c3ccccc3)[C@H](c3ccccc3)N1[C@@H]2c1ccc(O)cc1
3. CC[C@@H]1[C@H]2C3C(=O)N(CC)C(=O)C3CC(=O)[C@H]2[C@H](c2ccc(C)cc2)N1S(=O)(=O)c1ccc(C)cc1 (stereo not given in full)

OUT:
[-0.0765, 0.012, -0.0296]

Batch of 6 compounds: report composite z-score for each.
1. COC(=O)[C@@]1(Cc2ccccc2)[C@H]2c3cc(C(=O)N4CCCC4)n(Cc4ccsc4Br)c3C[C@H]2CN1C(=O)c1ccccc1
2. O=C(NC1CC1)[C@@H]1c2ccccc2C(=O)N(Cc2ccccc2)[C@H]1c1ccc(CO)cc1
3. CC(=O)n1cc(C(O)C2C=CC3C(=O)N(Cc4ccccc4)C(=O)C3N2n2cnnc2)c2ccccc21 (stereo not given)
4. CC(C)(C)OC(=O)CC[C@@]1(C(=O)O)N=C(c2ccc(OCCCO)cc2)O[C@@H]1c1ccccc1CN=[N+]=[N-]
5. O=C(O)[C@]1(Cc2ccccc2)N=C(c2ccc(OCCCO)cc2)O[C@@H]1c1ccccc1
6. O=C1O[C@@H](c2ccccc2)[C@@H](c2ccccc2)N2[C@@H](c3ccc(O)cc3)[C@]3(C(=O)Nc4ccccc43)[C@@H](C(=O)Nc3nc4ccccc4s3)[C@H]12

OUT:
1: 0.155; 2: -0.493; 3: -0.268; 4: 0.259; 5: -0.164; 6: 0.0373

I would be grateful if you could provide composite z-score for each of the following entries.
1. COC(=O)[C@@]1(Cc2ccccc2)[C@H]2c3cc(C(=O)N4CCCC4)[nH]c3C[C@H]2CN1C(=O)c1ccccc1
2. CCCCC(CC)C(O)C1C=CC2C(=O)N(c3ccccc3)C(=O)C2N1Nc1ccc([N+](=O)[O-])cc1 (stereo not given)

OUT:
1: -0.133; 2: -0.234

----------
# Assay name: S. cerevisiae RM11-1a growth modifiers, primary screen, strain RM11-1a, OD600, basal, 24 h (AID 1177);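 note: cultures grown under basal conditions with no added stressor; test concentration not given here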
# Setup conditions: OD600, 24 h, higher = more signal, called active from +8 up or from −8 down
Hi there, I'd appreciate the recorded z-score for every entry that follows.
One number for each entry.

The cases that follow already have their z-score on record.
Molecule	Numeric value
Cc1ccc(S[C@]2(C(=O)NC(C)C)CC(=O)N(Cc3ccccc3C(F)(F)F)[C@@H]2c2ccc(CO)cc2I)cc1	-2.43
COc1ccc([Si](C)(C)[C@H]2[C@H](CCn3cc([C@H](O)c4ccccc4)nn3)O[C@@]3(C(=O)N(Cc4ccc(N5CCC5=O)cc4)c4ccccc43)[C@@H]2C)cc1	1.07
NCCCCCCNC(=O)[C@@H]1C[C@@H]2C(=O)N3CCC[C@H]3C(=O)N2[C@@H]1c1ccc(O)cc1	-0.407
COc1ccc([Si](C)(C)[C@H]2[C@H](CC(=O)N3Cc4ccccc4C[C@H]3CO)O[C@@]3(C(=O)N(Cc4cccc(N5CCCCC5=O)c4)c4ccccc43)[C@@H]2C)cc1	0.662
COCCOC(=O)N1C(=O)[C@@]2(c3cc(C#Cc4ccc(OC)cc4)ccc31)[C@H](C(=O)NC[C@H](O)c1ccccc1)[C@H]1C(=O)O[C@H](c3ccccc3)[C@H](c3ccccc3)N1[C@@H]2c1ccc(O)cc1	0.552

For every item below, please supply its z-score.
1. Cc1ccc(C(C)CC(O)C2C=CC3C(=O)N(c4ccccc4)C(=O)C3N2Nc2ccc(C(C)C)cc2)o1 (centres undefined)
2. COc1ccc(C(O)C2C=CC3C(=O)N(Cc4ccccc4)C(=O)C3N2n2cnnc2)c2ccccc12 (centres undefined)
3. C[C@H]1C2=C3C(CC[C@H]4C(OCc5ccc(F)cc5C(F)(F)F)OC[C@](C)([C@@H]34)N(C(=O)OC(C)(C)C)C2)C2COC(=O)OCC21 (some centres undefined)

OUT:
0.685
-0.975
0.235

For each entry beneath this line, provide reported z-score.
1. O=C1C[C@]2(c3ccc([N+](=O)[O-])cc3)C(=O)N(Cc3ccccc3)c3cc(CO)ccc3[C@H]2N1CC12CC3CC(CC(C3)C1)C2
2. C#CCNC(=O)[C@H](Cc1ccccc1)NC(=O)[C@@H](N=[N+]=[N-])C(C)C
3. CN1C(=O)C2C(C1=O)C1C=C(c3ccc(CO)cc3)C2C(c2cccs2)N1Cc1cccc(OC(F)(F)F)c1 (centres undefined)
4. NCCCCCNC(=O)[C@@H]1C[C@@H]2C(=O)N[C@@H](CCCCN)C(=O)N2[C@@H]1c1cccc(OCCO)c1
5. C=C[C@@H](C)[C@H](OC(=O)Nc1ccc(SC)cc1)c1ccc(OCCO)cc1
6. C=CC[C@@]12N=C(c3ccc(OCCCO)cc3)O[C@@H]1c1ccccc1N(CCS(=O)(=O)c1ccccc1)C2=O

OUT:
1: -0.268; 2: -0.597; 3: 0.476; 4: -0.0041; 5: 0.0728; 6: 0.379
